test: viability loss with induced miR-34 in A549 – imaging, A549 dox-inducible miR-34, nuclei and caspase counts, primary screen (AID 1347080); conditions: A549 miR-34 inducible, Hoechst nuclei count, 48 h; stronger effect = lower value; cell number ratio, induced over uninduced
What fold change was measured for each of the following?
Give bare numbers.

Worked cases, answers included:
c1cc2c3c(c1)c1c(n3CCNC2)CCCC1 : 0.921
CCc1cc(Nc2nccc(-c3c(-c4ccc(OC)c(C(=O)Nc5c(F)cccc5F)c4)nc4ccccn34)n2)c(OC)cc1N1CCC(N2CCN(S(C)(=O)=O)CC2)CC1 : 0.946
CCCCCCCCC(=O)NCc1cc(OC)c(O)cc1I : 0.949
COc1cc(Nc2ncc(F)c(Nc3ccc4c(n3)N(COP(=O)(O)O)C(=O)C(C)(C)O4)n2)cc(OC)c1OC : 0.857
C=CC[N+]1([C@H]2C[C@H]3[C@@H]4CC[C@H]5C[C@H](O)[C@@H](N6CCOCC6)C[C@]5(C)[C@H]4CC[C@]3(C)[C@H]2OC(C)=O)CCCC1 : 0.847

For every item in the list below, what is its measured fold change?
1. O=C(O)c1c(Sc2ccccc2)c2cc(Cl)ccc2n1Cc1ccc(Cl)cc1
2. O=C(Nc1cc2cc[nH]c2cn1)c1ccccc1
3. OC[C@H]1NC[C@H](O)[C@@H](O)[C@@H]1O
4. NC(C(=O)O)c1cc(O)cc(O)c1 (stereo unspecified)

Reply:
0.94
0.982
0.965
0.987

Can you give me fold change for all of these, one by one?
1. CCCCc1ccc(N=CNO)c(C)c1
2. CN(CC[C@@H](Oc1ccc(-c2ccccc2)cc1)c1ccc(F)cc1)CC(=O)O
3. O=C(Nc1ccccc1)C12CC1/C(=N\O)c1ccccc1O2 (stereo unspecified)
4. CCCCC[C@H](O)/C=C/[C@H]1C(=O)C[C@H](O)[C@@H]1C/C=C\CCCC(=O)OCC(O)CO (stereo partly specified)

Reply:
1: 1.01; 2: 0.898; 3: 0.911; 4: 1.06

Could you tell me fold change for each of these molecules? They are listed below.
1. C/C=C1\C2C=C(C)CC1(N)c1ccc(=O)[nH]c1C2 (stereo unspecified)
2. O=C(NOC[C@H](O)CO)c1ccc(F)c(F)c1Nc1ccc(I)cc1F
3. Cc1cc2c(F)c(Oc3ncnn4cc(OCC(C)OC(=O)C(C)N)c(C)c34)ccc2[nH]1 (stereo unspecified)
4. CCCCN=C(N)NO
5. O=c1cc(N2CCNCC2)oc2c(-c3ccccc3)cccc12
6. c1ccc(C(O[C@@H]2CCCN(CCc3ccc4c(c3)OCO4)C2)c2ccccc2)cc1
7. Nc1ncnc2c1c(-c1cccc(OCc3ccccc3)c1)cn2C1CC(CN2CCC2)C1 (stereo unspecified)
8. CN(C)c1nc(N)c(C(=O)Nc2cccnc2)nc1Cl

Reply:
[1.01, 1.03, 1.09, 1.06, 0.968, 0.989, 1.02, 0.904]

Answer for every listed entry: what is its fold change? The entries follow.
1. CC(C)OC(=O)C1=CN(C(=O)c2ccc(F)c(F)c2)CC(C)(C)c2c1[nH]c1ccccc21
2. COc1cc([C@@H]2c3cc4c(cc3C(OC3OC5COC(C)OC5C(O)C3O)C3COC(=O)[C@@H]32)OCO4)cc(OC)c1O (stereo partly specified)
3. CCCCC[C@](C)(O)/C=C/[C@@H]1[C@@H](C/C=C\CCCC(=O)OC)[C@@H](O)C[C@H]1O
4. CC(=O)OCOC(c1ccc2ccccc2c1)P(=O)(OCOC(C)=O)OCOC(C)=O (stereo unspecified)
5. Cc1ccc(-n2[nH]c(C)c(N=Nc3cccc(-c4cccc(C(=O)O)c4)c3O)c2=O)cc1C

Reply:
1: 0.997; 2: 1.07; 3: 0.977; 4: 1.11; 5: 0.913

Quick request: fold change for each listed item, please.
1. O=C(Nc1cccc(C(F)(F)F)c1)Nc1cc(S(=O)(=O)NC2CC2)ccc1-c1ccsc1
2. CC(=O)Nc1ccc(C(=O)Nc2ccccc2N)cc1
3. N[C@@H](Cn1ccc(=O)n(Cc2ccccc2C(=O)O)c1=O)C(=O)O
4. Cn1cc(-c2cnn3c(N)c(Br)c(C4CCCNC4)nc23)cn1 (stereo unspecified)
5. COc1ccc(-c2c(-c3ccc(O)cc3O)n[nH]c2C)cc1

Reply:
1. 0.892
2. 0.986
3. 0.972
4. 0.949
5. 0.931

====

So I've got a bunch of molecules here, and I need their cell count values.
test: viability loss with induced miR-34 in A549 – imaging, A549 dox-inducible miR-34, nuclei and caspase counts, primary screen (AID 1347080); conditions: A549 miR-34 inducible, Hoechst nuclei count, 48 h; measured here: total cells with miR-34 induction; stronger effect = lower value

Check out these entries, answers already filled in.
CC(C)OC(=O)CCC/C=C\C[C@@H]1[C@@H](/C=C/C(=O)COc2cccc(C(F)(F)F)c2)[C@H](O)C[C@@H]1O : 6150
O=C(O)CCC/C=C\C[C@@H]1[C@@H](/C=C/C(=O)COc2cccc(C(F)(F)F)c2)[C@H](O)C[C@@H]1O : 6020
CCCCC[C@H](O)/C=C/[C@@H]1[C@H](C/C=C\CCCC(=O)O)[C@H](O)C[C@H]1O : 5020

Field: cell count. Fill in for each record below.
1. CCCCCCCCCCCCCC(=O)N[C@H](CO)[C@H](O)c1ccc([N+](=O)[O-])cc1
2. Nc1nc2c(nc(Br)n2[C@@H]2O[C@@H]3COP(=O)(O)O[C@H]3[C@H]2O)c(=O)[nH]1
3. CC(C)n1nc(-c2ccc3oc(N)nc3c2)c2c(N)ncnc21
4. CCCCCCCCCCCCCCCCCCCC(=O)NCCO
5. CCCCC(C)(C)[C@H](O)/C=C/[C@H]1C(=O)C[C@H](O)[C@@H]1C/C=C\CCCC(=O)O
6. Cc1cc(/C(=C\Nc2ccc(Cl)cc2)C(=O)Nc2ccc(Cl)cc2)on1

Reply:
6010
9650
2980
6530
5440
7920

====

test: drug combination growth inhibition, ovarian cancer – cell-based, oncology-focused library, rucaparib conditional, profiling panel (AID 1508598); conditions: patient-derived ovarian cancer cells, CellTiter-Glo viability, 144 h; at 0.0195 µM; OCI-C5x cells; with rucaparib 10 µM; stronger effect = lower value; 100% = cells with rucaparib alone
Quantity Name: viability (%)
Answers are plain numbers, in %.

Solved entries (count: 3):
CNC(=O)c1cc(COc2nnc(Nc3ccc(Cl)cc3)c3ccoc23)ccn1 : 105
CC(C)c1cc(-c2n[nH]c(=O)n2-c2ccc3c(ccn3C)c2)c(O)cc1O : 117
O=c1cc(N2CCOCC2)oc2c(-c3cccc4c3sc3ccccc34)cccc12 : 98.9

For every record below, what is its viability?
1. CCCCc1nc2cc(/C=C/C(=O)NO)ccc2n1CCN(CC)CC
2. Cc1ccc(S(=O)(=O)Nc2nc3ccccc3nc2Nc2ccc3nsnc3c2)cc1
3. O=C(c1cc(Cc2n[nH]c(=O)c3ccccc23)ccc1F)N1CCN(C(=O)C2CC2)CC1
4. C=CCn1c(=O)c2cnc(Nc3ccc(N4CCN(C)CC4)cc3)nc2n1-c1cccc(C(C)(C)O)n1
5. CN(NC(=O)CC(=O)NN(C)C(=S)c1ccccc1)C(=S)c1ccccc1
6. CCN1CCN(Cc2ccc(-c3cc4c(N[C@H](C)c5ccccc5)ncnc4[nH]3)cc2)CC1
7. CC(C)CC(=O)Nc1n[nH]c2c1CN(C(=O)C1CCN(C)CC1)C2(C)C
8. N#Cc1c(NC(=O)c2cccc3ccccc23)sc2c1CCCC2

Reply:
1: 110; 2: 123; 3: 114; 4: 120; 5: 151; 6: 109; 7: 120; 8: 108

====

experiment: viability loss in pontine glioma line – cell-based, SU-DIPG-XXV, MIPE5.0, CellTiter-Glo, qHTS, dose response (AID 1347065); conditions: CellTiter-Glo ATP luminescence;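 further: cells exposed to compound for 48 hours before ATP readout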
Results filed as inconclusive are left out. The source made the active and inactive calls. Cut-off not given; nearly all actives show AC50 up to about 26 µM.
Could you please pick one outcome from this set? active, inactive

Solved cases below.
CC1=C2C[C@H]3[C@@H](CC[C@@H]4C[C@H](NS(C)(=O)=O)CC[C@@]43C)[C@@H]2CC[C@@]2(C1)O[C@@H]1C[C@H](C)CN[C@H]1[C@H]2C : active
CC(C)(C)c1cnc(CSc2cnc(NC(=O)C3CCNCC3)s2)o1 : active

Query: I'd appreciate the recorded outcome for `CCN(CC)CCNC(=O)c1ccc2nc(-c3ccccc3)c(-c3ccc(CN4CCC(n5c(=O)[nH]c6ccccc65)CC4)cc3)nc2c1` from this test.
Reply: active

Query: Also `COc1cc(Nc2nc3ccccc3nc2NS(=O)(=O)c2ccc(NC(=O)c3ccc(C)c(OC)c3)cc2)cc(OC)c1` ?
Reply: inactive

Query: Same question, N#Cc1ccnc(N2C(=O)CC[C@H]2C(=O)N(c2cncc(F)c2)C(C(=O)NC2CC(F)(F)C2)c2ccccc2Cl)c1 (stereo partly drawn) this time
Reply: inactive

Query: And what about the compound `COc1ccc2c(c1)[C@]1(C[C@H]1c1ccc3c(/C=C/c4ccc(CN5C[C@@H](C)O[C@@H](C)C5)cc4)n[nH]c3c1)C(=O)N2` ?
Reply: active

Query: What do you have for `Cn1cc(-c2c[nH]c3ncnc(N4CCOCC4)c23)cn1` ?
Reply: inactive

Query: Thanks! And `Nc1nc(NCCNc2ncc(-n3ccnc3)c(-c3ccc(Cl)cc3Cl)n2)ccc1[N+](=O)[O-]` ?
Reply: active

Query: What do we get for `CN(C)C/C=C/C(=O)Nc1cc2c(Nc3ccc(F)c(Cl)c3)ncnc2cc1O[C@H]1CCOC1` ?
Reply: active

Query: Note, next up: `Cc1nc2ccc(-n3ncc(C(=O)c4cc5ccccc5[nH]4)c3N)cc2[nH]1`
Reply: active

Hello, the source for this data is PubChem BioAssay, in case you need it.
